Reference for the values: patent US20230391739A1

- system.name: mouse TRPM3α2 (mTRPM3) ion channel (Mus musculus)
- Sequence (J9SQF3 1-1709 isoform J9SQF3-12): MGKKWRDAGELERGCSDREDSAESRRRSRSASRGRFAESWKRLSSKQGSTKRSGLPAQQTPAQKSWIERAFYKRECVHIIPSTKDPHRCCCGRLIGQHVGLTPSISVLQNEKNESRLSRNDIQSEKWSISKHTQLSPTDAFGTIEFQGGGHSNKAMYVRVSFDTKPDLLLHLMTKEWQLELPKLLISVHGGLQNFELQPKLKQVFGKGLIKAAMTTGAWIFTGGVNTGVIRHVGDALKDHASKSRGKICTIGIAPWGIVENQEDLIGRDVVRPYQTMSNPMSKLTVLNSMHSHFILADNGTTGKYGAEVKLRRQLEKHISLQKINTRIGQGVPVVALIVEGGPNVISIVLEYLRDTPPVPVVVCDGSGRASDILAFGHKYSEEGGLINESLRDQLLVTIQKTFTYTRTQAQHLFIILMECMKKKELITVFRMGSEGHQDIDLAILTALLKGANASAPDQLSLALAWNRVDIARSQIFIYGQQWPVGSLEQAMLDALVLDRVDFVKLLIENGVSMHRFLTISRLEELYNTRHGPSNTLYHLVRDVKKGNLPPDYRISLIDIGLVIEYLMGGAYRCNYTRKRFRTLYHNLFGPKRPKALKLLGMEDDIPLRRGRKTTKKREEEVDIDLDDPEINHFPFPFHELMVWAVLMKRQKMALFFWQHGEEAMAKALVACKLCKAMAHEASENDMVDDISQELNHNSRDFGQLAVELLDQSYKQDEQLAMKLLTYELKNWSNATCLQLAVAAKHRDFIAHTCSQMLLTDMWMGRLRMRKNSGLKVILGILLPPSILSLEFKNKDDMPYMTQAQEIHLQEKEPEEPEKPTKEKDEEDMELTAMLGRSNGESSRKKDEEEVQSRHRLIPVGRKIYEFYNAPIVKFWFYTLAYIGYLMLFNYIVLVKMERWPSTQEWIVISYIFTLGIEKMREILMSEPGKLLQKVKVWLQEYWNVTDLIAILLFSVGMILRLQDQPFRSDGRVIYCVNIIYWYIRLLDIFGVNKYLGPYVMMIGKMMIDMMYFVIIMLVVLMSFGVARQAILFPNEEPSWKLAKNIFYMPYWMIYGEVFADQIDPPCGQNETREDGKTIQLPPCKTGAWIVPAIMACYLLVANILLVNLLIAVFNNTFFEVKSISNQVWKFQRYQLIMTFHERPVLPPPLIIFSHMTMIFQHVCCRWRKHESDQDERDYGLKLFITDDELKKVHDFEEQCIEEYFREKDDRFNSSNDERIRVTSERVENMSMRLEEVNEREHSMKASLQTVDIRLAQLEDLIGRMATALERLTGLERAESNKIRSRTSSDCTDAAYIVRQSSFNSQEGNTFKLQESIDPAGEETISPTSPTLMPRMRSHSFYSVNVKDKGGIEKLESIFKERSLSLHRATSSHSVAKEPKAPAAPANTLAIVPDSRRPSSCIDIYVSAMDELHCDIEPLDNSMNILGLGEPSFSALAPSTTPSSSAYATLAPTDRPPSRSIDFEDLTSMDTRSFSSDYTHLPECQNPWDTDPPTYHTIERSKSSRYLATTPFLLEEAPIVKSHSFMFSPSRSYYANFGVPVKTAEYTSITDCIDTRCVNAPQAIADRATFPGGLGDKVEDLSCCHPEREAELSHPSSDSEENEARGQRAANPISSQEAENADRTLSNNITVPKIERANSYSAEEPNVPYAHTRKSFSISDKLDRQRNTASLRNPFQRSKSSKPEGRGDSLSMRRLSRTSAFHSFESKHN
- measurement.description: TRPM3 ion channel driven Ca2+ uptake, Fluo-4 AM assay, PS-stimulated (mTRPM3)
- measurement.conditions: TRPM3 overexpressing flip-in HEK293 cells stimulated with Pregnenolone sulfate (PS) 50 μM, activity ranges A, B, C
Please respond with reported IC50 for every item in the list.

Ask: System mouse TRPM3α2 (mTRPM3) ion channel (Mus musculus). Read-out IC50. Item Cc1oc2ccc(OCc3ccccc3COC3CCCCO3)cc2c1C(=O)NC1CCN(C)CC1 (stereo not shown) [Cpd 260] . Report value.
Reply: 1 to 20 µM

Ask: Name the value of IC50 reported for Cc1oc2ccc(OCc3ccccc3F)cc2c1C(=O)NC1CCNCC1(F)F (stereo not shown) [Cpd 201] when tested on mouse TRPM3α2 (mTRPM3) ion channel (Mus musculus).
Reply: < 1 µM

Ask: State measured IC50 of the compound Cc1oc2ccc(OCc3ccccc3)cc2c1C(=O)NCC1CCN(C(=O)OC(C)(C)C)CC1 [Cpd 253] with mouse TRPM3α2 (mTRPM3) ion channel (Mus musculus).
Reply: > 20 µM

Ask: Provide IC50, system mouse TRPM3α2 (mTRPM3) ion channel (Mus musculus), entry Cc1oc2ccc(OCc3c(F)cccc3F)cc2c1C(=O)N[C@H]1CCN(C(=O)OC(C)(C)C)C1 [Cpd 257]
Reply: 1 to 20 µM
